This collection of values is drawn from ChEMBL document CHEMBL4417631.

- test summary: Half life in simulated intestinal fluid at 20 uM by LC-MS/MS analysis
- Type: ADME
Form field: half-life at 20 µM (one value per entry).

Worked cases, answers included:
>>> meas_value("CC(=O)NCCCC[C@H](NC(=O)[C@](C)(CO)NC(=O)[C@H](Cc1ccc2ccccc2c1)NC(=O)[C@H](Cc1ccc(OCCN)cc1)NC(=O)[C@@H]1CSCC[C@H](NC(C)=O)C(=O)N[C@@H](CCC(N)=O)C(=O)N[C@@H]([C@@H](C)O)C(=O)N[C@@H](Cc2c[nH]c3ccccc23)C(=O)N[C@@H](CCC(N)=O)C(=O)N1)C(=O)N[C@@H](CC(N)=O)C(=O)NCC(N)=O")
"< 1 h"
>>> meas_value("CC(=O)NCCCC[C@H](NC(=O)[C@](C)(CCCCNC(C)=O)NC(=O)[C@H](Cc1ccc2ccccc2c1)NC(=O)[C@H](Cc1ccc(OCCNC(C)=O)cc1)NC(=O)[C@@H](NC(=O)[C@H](CCC(N)=O)NC(=O)[C@H](Cc1c[nH]c2ccccc12)NC(=O)[C@@H](NC(=O)[C@H](CCC(N)=O)NC(=O)[C@@H](NC(C)=O)C(C)(C)S)[C@@H](C)O)C(C)(C)S)C(=O)N[C@@H](CC(N)=O)C(=O)NCC(N)=O")
"> 6 h"

API: the following record is the query input.
Quick note, half-life at 20 µM for CC(=O)NCCCC[C@H](NC(=O)[C@](C)(CCCCN)NC(=O)[C@H](Cc1ccc2ccccc2c1)NC(=O)[C@H](Cc1ccc(Oc2ccccc2)cc1)NC(=O)[C@@H]1CSCC[C@H](NC(C)=O)C(=O)N[C@@H](CCC(N)=O)C(=O)N[C@@H]([C@@H](C)O)C(=O)N[C@@H](Cc2c[nH]c3ccccc23)C(=O)N[C@@H](CCC(N)=O)C(=O)N1)C(=O)N[C@@H](CC(N)=O)C(=O)NCC(N)=O landed at > 6 h

====

half-life at 20 µM listing for selected compounds.
- test summary: Half life in simulated gastric fluid at 20 uM by LC-MS/MS analysis
- Type: ADME

Known half-life at 20 µM results, listed for orientation:
>>> meas_value("CC(=O)N[C@@H](Cc1ccccc1)C(=O)N[C@H]1CCSC[C@@H](C(=O)N[C@@H](Cc2ccc(OCCN)cc2)C(=O)N[C@@H](Cc2ccc3ccccc3c2)C(=O)N[C@@](C)(CCCCN)C(=O)N[C@@H](CCC(=O)O)C(=O)N[C@@H](CC(N)=O)C(=O)N[C@@H](CC(N)=O)C(N)=O)NC(=O)[C@H](CCC(N)=O)NC(=O)[C@H](Cc2c[nH]c3ccccc23)NC(=O)[C@H]([C@@H](C)O)NC(=O)[C@H](CCC(N)=O)NC1=O")
"120 to 180 min"
>>> meas_value("CC(=O)NCCCC[C@H](NC(=O)C(C)(C)NC(=O)[C@H](Cc1ccc2ccccc2c1)NC(=O)[C@H](Cc1ccc(OCCN)cc1)NC(=O)[C@@H]1CSCC[C@H](NC(C)=O)C(=O)N[C@@H](CCC(N)=O)C(=O)N[C@@H]([C@@H](C)O)C(=O)N[C@@H](Cc2c[nH]c3ccccc23)C(=O)N[C@@H](CCC(N)=O)C(=O)N1)C(=O)N[C@@H](CCC(N)=O)C(=O)NCC(N)=O")
"< 60 min"

Reported half-life at 20 µM for CC(=O)N[C@@H](CCC(=O)O)C(=O)N[C@H]1CCSC[C@@H](C(=O)N[C@@H](Cc2ccc(OCCN)cc2)C(=O)N[C@@H](Cc2ccc3ccccc3c2)C(=O)N[C@@](C)(CCCCN)C(=O)N[C@@H](CCC(=O)O)C(=O)N[C@@H](CC(N)=O)C(=O)N[C@@H](CC(N)=O)C(N)=O)NC(=O)[C@H](CCC(N)=O)NC(=O)[C@H](Cc2c[nH]c3ccccc23)NC(=O)[C@H]([C@@H](C)O)NC(=O)[C@H](CCC(N)=O)NC1=O was 120 to 180 min

====

- test summary: Inhibition of interleukin-23 binding to rat interleukin-23 receptor incubated for 2 hrs by competitive binding ELISA
pIC50: −log10 of the molar value. Where a SMILES comes first, the peptide text is derived from it. [ ]: non-standard residue; d: D form. 2Nal = N[C@@H](Cc1ccc2ccccc2c1)C(=O)O; Pen = CC(C)(S)[C@H](N)C(=O)O; αMeK = C[C@](N)(CCCCN)C(=O)O
Measured pIC50 values are reported for all entries that follow.

Record excerpt, results attached:
>>> meas_value("CC(=O)N[C@H](C(=O)N[C@@H](C)C(=O)N[C@@H](CC(=O)O)C(=O)N[C@@H](Cc1c[nH]c2ccccc12)C(=O)N[C@H](C(=O)N[C@@H](CS)C(=O)N[C@@H](Cc1ccc(O)cc1)C(=O)N[C@@H](Cc1c[nH]c2ccccc12)C(=O)N[C@@H](Cc1cnc[nH]1)C(=O)N[C@H](C(=O)N[C@@H](Cc1ccccc1)C(=O)NCC(=O)NCCOCC(=O)N[C@H](CCCCN)C(N)=O)[C@@H](C)O)C(C)C)C(C)(C)S")
"5.00 to 6.00"
>>> meas_value("CC(=O)NCCCC[C@H](NC(=O)[C@](C)(CCCCN)NC(=O)[C@H](Cc1ccc2ccccc2c1)NC(=O)[C@H](Cc1ccc2ccccc2c1)NC(=O)[C@@H]1CSCC[C@H](NC(C)=O)C(=O)N[C@@H](CCC(N)=O)C(=O)N[C@@H]([C@@H](C)O)C(=O)N[C@@H](Cc2c[nH]c3ccccc23)C(=O)N[C@@H](CCC(N)=O)C(=O)N1)C(=O)N[C@@H](CC(N)=O)C(=O)NCC(N)=O")
"7.00 to 7.60"
>>> meas_value("CC(=O)N[C@@H](CS)C(=O)N[C@@H](C)C(=O)N[C@@H](CC(=O)O)C(=O)N[C@@H](Cc1c[nH]c2ccccc12)C(=O)N[C@H](C(=O)N[C@@H](CS)C(=O)N[C@@H](Cc1ccc(O)cc1)C(=O)N[C@@H](Cc1c[nH]c2ccccc12)C(=O)N[C@@H](CCCNC(=N)N)C(=O)N[C@@H](CCCCN)C(=O)N[C@@H](Cc1ccccc1)C(=O)NCC(=O)NCCC(=O)N[C@H](CCCCN)C(N)=O)C(C)C")
7.48
>>> meas_value("CC(=O)N[C@@H](CS)C(=O)N[C@@H](CCC(N)=O)C(=O)N[C@H](C(=O)N[C@@H](Cc1c[nH]c2ccccc12)C(=O)N[C@@H](CCC(N)=O)C(=O)N[C@@H](CS)C(=O)N[C@@H](Cc1ccc(O)cc1)C(=O)N[C@@H](Cc1c[nH]c2ccccc12)C(=O)NC(C)(C)C(=O)N[C@@H](CCC(=O)O)C(=O)N[C@@H](CC(N)=O)C(=O)NCC(N)=O)[C@@H](C)O")
7.47
>>> meas_value("COc1ccc(C[C@H](NC(=O)[C@@H](NC(=O)[C@H](CCC(N)=O)NC(=O)[C@H](Cc2c[nH]c3ccccc23)NC(=O)[C@@H](NC(=O)[C@H](CCC(N)=O)NC(=O)[C@@H](NC(C)=O)C(C)(C)S)[C@@H](C)O)C(C)(C)S)C(=O)N[C@@H](Cc2ccc3ccccc3c2)C(=O)N[C@@](C)(CCCCN)C(=O)N[C@@H](CCCCNC(C)=O)C(=O)N[C@@H](CC(N)=O)C(=O)NCC(N)=O)cc1")
"7.00 to 7.60"
>>> meas_value("CC(=O)N[C@H](C(=O)N[C@@H](CCC(N)=O)C(=O)N[C@H](C(=O)N[C@@H](Cc1c[nH]c2ccccc12)C(=O)N[C@@H](CCC(N)=O)C(=O)N[C@H](C(=O)N[C@@H](Cc1ccc(O)cc1)C(=O)N[C@@H](Cc1c[nH]c2ccccc12)C(=O)N[C@@](C)(CCCN)C(=O)N[C@@H](CCC(=O)O)C(=O)N[C@@H](CC(N)=O)C(=O)NCC(N)=O)C(C)(C)S)[C@@H](C)O)C(C)(C)S")
"6.00 to 7.00"
>>> meas_value("CC(=O)N[C@@H](CS)C(=O)N[C@@H](CCC(N)=O)C(=O)N[C@H](C(=O)N[C@@H](Cc1c[nH]c2ccccc12)C(=O)N[C@@H](CCC(N)=O)C(=O)N[C@@H](CS)C(=O)N[C@@H](Cc1ccc(O)cc1)C(=O)N[C@@H](Cc1c[nH]c2ccccc12)C(=O)N[C@@H](CCC(C)C)C(=O)N[C@@H](CCC(=O)O)C(=O)N[C@@H](CC(N)=O)C(=O)N[C@@H](Cc1ccccc1)C(N)=O)[C@@H](C)O")
6.74
>>> meas_value("CC(=O)N[C@H](C(=O)N[C@@H](CCC(N)=O)C(=O)N[C@H](C(=O)N[C@@H](Cc1c[nH]c2ccccc12)C(=O)N[C@@H](CCC(N)=O)C(=O)N[C@H](C(=O)N[C@@H](Cc1ccc2ccccc2c1)C(=O)N[C@@H](Cc1ccc2ccccc2c1)C(=O)N[C@@](C)(CCCCN)C(=O)N[C@@H](CCC(=O)O)C(=O)N[C@@H](CC(N)=O)C(=O)NCC(N)=O)C(C)(C)S)[C@@H](C)O)C(C)(C)S (Ac-[Pen]QTWQ[Pen][2Nal][2Nal][αMeK]ENG-NH2)")
"6.00 to 7.00"
>>> meas_value("CC(=O)N[C@H]1CCSC[C@@H](C(=O)N[C@@H](Cc2ccc(OCCN)cc2)C(=O)N[C@@H](Cc2ccc3ccccc3c2)C(=O)NC2(C(=O)N[C@@H](CCC(=O)O)C(=O)N[C@@H](CC(N)=O)C(=O)N[C@@H](CC(N)=O)C(N)=O)CCNCC2)NC(=O)[C@H](CCC(N)=O)NC(=O)[C@H](Cc2c[nH]c3ccccc23)NC(=O)[C@H]([C@@H](C)O)NC(=O)[C@H](CCC(N)=O)NC1=O")
"> 8.00"

The reported value for CC(=O)NCCCC[C@H](NC(=O)[C@@](C)(NC(=O)[C@H](Cc1ccc2ccccc2c1)NC(=O)[C@H](Cc1ccc(OCCN)cc1)NC(=O)[C@@H]1CSCC[C@H](NC(C)=O)C(=O)N[C@@H](CCC(N)=O)C(=O)N[C@@H]([C@@H](C)O)C(=O)N[C@@H](Cc2c[nH]c3ccccc23)C(=O)N[C@@H](CCC(N)=O)C(=O)N1)C(C)C)C(=O)N[C@@H](CC(N)=O)C(=O)NCC(N)=O in terms of pIC50 is > 8.00
